Kindly supply the reported fold difference in affinity vs original values for the records listed here.
ASSAY SYSTEM: binding partner of C5A (XPA23)
METHOD: Biacore, K-off
Give bare numbers, in fold.

Past entries and their recorded results:
{"BINDER": "C5A (XPA23) VH F35K (antibody, V domains shown) VH: EVQLLESGGGLVQPGGSLRLSCAASGFTFSKYFMKWVRQAPGKGLEWVSVISPSGGMTRYADSVKGRFTISRDNSKNTLYLQMNSLRAEDTAVYYCARVGYGGNSDYWGQGTLVTVSS VL: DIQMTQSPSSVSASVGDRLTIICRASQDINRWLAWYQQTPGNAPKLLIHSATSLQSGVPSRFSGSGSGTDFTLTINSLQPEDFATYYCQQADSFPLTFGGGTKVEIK", "RECORDED NUMBER": 0.68}
{"BINDER": "C5A (XPA23) VH P53S (antibody, V domains shown) VH: EVQLLESGGGLVQPGGSLRLSCAASGFTFSKYFMFWVRQAPGKGLEWVSVISSSGGMTRYADSVKGRFTISRDNSKNTLYLQMNSLRAEDTAVYYCARVGYGGNSDYWGQGTLVTVSS VL: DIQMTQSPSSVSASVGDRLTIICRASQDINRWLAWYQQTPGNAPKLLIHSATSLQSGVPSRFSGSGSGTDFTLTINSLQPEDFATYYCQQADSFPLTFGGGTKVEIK", "RECORDED NUMBER": 0.03}

With those in mind, consider the next binder.
Summary for this binder, C5A (XPA23) VH Y107K (antibody, V domains shown) VH: EVQLLESGGGLVQPGGSLRLSCAASGFTFSKYFMFWVRQAPGKGLEWVSVISPSGGMTRYADSVKGRFTISRDNSKNTLYLQMNSLRAEDTAVYYCARVGYGGNSDKWGQGTLVTVSS VL: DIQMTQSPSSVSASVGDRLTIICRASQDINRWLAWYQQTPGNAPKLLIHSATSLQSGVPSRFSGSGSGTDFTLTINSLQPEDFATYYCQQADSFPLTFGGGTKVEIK : fold difference in affinity vs original is 0.82
